pIC50: −log10 of the molar value.
As an illustration, consider measured pIC50 for compounds on huPPARγ (Homo sapiens).
Sequence (P37231 whole entry): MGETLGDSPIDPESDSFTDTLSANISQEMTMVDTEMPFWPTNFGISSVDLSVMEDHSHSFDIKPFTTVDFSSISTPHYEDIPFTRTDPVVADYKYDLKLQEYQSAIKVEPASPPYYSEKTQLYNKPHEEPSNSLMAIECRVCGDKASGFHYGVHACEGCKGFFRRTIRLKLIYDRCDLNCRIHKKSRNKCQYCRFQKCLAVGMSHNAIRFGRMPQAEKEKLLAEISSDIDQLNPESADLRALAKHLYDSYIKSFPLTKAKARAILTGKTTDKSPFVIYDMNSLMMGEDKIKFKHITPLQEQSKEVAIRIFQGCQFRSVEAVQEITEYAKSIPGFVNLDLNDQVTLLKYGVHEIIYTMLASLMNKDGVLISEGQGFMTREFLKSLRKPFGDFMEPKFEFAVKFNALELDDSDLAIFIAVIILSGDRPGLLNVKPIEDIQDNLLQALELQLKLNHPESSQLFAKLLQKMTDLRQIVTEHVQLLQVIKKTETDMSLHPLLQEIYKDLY
Sequence (P19793 whole entry partner): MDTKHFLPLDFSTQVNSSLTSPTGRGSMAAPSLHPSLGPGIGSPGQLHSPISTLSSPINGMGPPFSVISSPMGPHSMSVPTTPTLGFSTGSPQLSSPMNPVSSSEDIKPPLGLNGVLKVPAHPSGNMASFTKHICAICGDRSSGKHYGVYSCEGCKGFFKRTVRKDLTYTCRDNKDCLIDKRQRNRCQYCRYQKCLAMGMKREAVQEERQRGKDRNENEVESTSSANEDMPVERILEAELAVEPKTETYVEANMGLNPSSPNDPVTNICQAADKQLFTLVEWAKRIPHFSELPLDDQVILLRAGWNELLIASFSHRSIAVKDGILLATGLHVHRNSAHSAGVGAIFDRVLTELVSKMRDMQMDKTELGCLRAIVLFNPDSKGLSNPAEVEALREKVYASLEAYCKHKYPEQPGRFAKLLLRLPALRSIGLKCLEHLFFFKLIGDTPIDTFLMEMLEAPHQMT
measured.endpoint: pIC50

compound: Cc1oc(-c2cccc(-c3cccs3)c2)nc1CCOc1ccc(CC(C)(Oc2ccc(Cl)cc2)C(=O)O)cc1 (stereo not shown)
target: huPPARγ (Homo sapiens)
measurement: 7.26

compound: COc1cc(CC(C)(Oc2ccccc2)C(=O)O)ccc1OCCc1nc(-c2cccc(-c3ccccc3)c2)oc1C (stereo not shown)
target: huPPARγ (Homo sapiens)
measurement: 7.39

compound: Cc1ccc(OC(C)(Cc2ccc(OCCc3nc(-c4ccc(-c5ccccc5)cc4)oc3C)cc2)C(=O)O)cc1C (stereo not shown)
target: huPPARγ (Homo sapiens)
measurement: 7.40

compound: CCC(Cc1ccc(OCCc2nc(-c3cccc(-c4ccccc4)c3)oc2C)cc1)(Oc1ccccc1)C(=O)O (stereo not shown)
target: huPPARγ (Homo sapiens)
measurement: 7.35
